The reader will find pKi measurements below, all made with UniProt:P00533.
One number for each entry, as −log10 of the molar value.

Study these solved cases before continuing.
> print(dat)
                                   compound             tgt  property.measured  meas.value
1  Cc1nc2cnc(Nc3ccnc(N4CCC(C)(C(N)=O)C4)n3)cc2n1C(C)C (configuration not stated)  UniProt:P00533                pKi        6.17
2  CO[C@H]1CCN(c2nccc(Nc3cc4c(cn3)nc(CO)n4C(C)C)n2)C[C@@H]1F (racemic)  UniProt:P00533                pKi        6.27
3  COC1CCN(c2nccc(Nc3cc4c(cn3)nc(C)n4C(C)C)n2)CC1  UniProt:P00533                pKi        6.06
4  CO[C@H]1CCN(c2nccc(Nc3cc4c(cn3)nc(C)n4C(C)C)n2)C[C@@H]1F (racemic)  UniProt:P00533                pKi        5.74
5  Cc1nc2cnc(Nc3ccnc(NCC(C)(C)C(N)=O)n3)cc2n1C(C)C  UniProt:P00533                pKi        6.41

For the 5 compounds below, give their pKi values.
1. CO[C@H]1CCN(c2nccc(Nc3cc4c(cn3)nc([C@@H](C)O)n4[C@H](C)C(F)(F)F)n2)C[C@H]1F
2. Cc1nc2cnc(Nc3ccnc(N4CC[C@H](O)[C@H](F)C4)n3)cc2n1C(C)C (racemic)
3. CO[C@H]1CCN(c2nccc(Nc3cc4c(cn3)nc(CO)n4C(C)C)n2)C[C@H]1F (racemic)
4. COC1CCN(c2nccc(Nc3cc4c(cn3)nc(CO)n4C(C)C)n2)CC1
5. Cc1nc2cnc(Nc3ccnc(OCC(C)(C)S(C)(=O)=O)n3)cc2n1C(C)C

Reply |
6.91
6.04
6.82
6.40
5.68

* * *

assay: physchem; conditions: buffer, pH 7.4, logD
Description: Lipophilicity, log D of the compound at pH 7.4 by microscale shake flask method
property.measured: logD
Numbers only.

> print(dat)
                                   molecule  meas.value
1  COC1CCN(c2nccc(Nc3cc4c(cn3)ncn4CC(F)(F)F)n2)CC1         2.8
2  COC1CCN(c2nccc(Nc3cc4c(cn3)ncn4C(C)C(F)(F)F)n2)CC1 (racemic)         2.7
3  COC1CCN(c2nccc(Nc3cc4c(cn3)nc(CO)n4C(C)C)n2)CC1         2.3

Return reported logD values for all items listed beneath this line.
1. CO[C@H]1CCN(c2nccc(Nc3cc4c(cn3)nc(C)n4C(C)C)n2)C[C@H]1F (racemic)
2. CO[C@H]1CCN(c2nccc(Nc3cc4c(cn3)nc(C)n4C(C)C)n2)C[C@@H]1F (racemic)
3. Cc1nc2cnc(Nc3ccnc(/C=C/C(C)(C)O)n3)cc2n1C(C)C
4. COC1CCN(c2nccc(Nc3cc4[nH]cnc4cn3)n2)CC1
5. C[C@@H](O)c1nc2cnc(Nc3ccnc(N4CC[C@H](O)[C@H](F)C4)n3)cc2n1[C@H](C)C(F)(F)F
6. Cc1nc2cnc(Nc3ccnc(N4CCC(O)CC4)n3)cc2n1C(C)C

Reply |
1. 2.3
2. 2.5
3. 2
4. 1.9
5. 1.8
6. 1.8

* * *

biological target: Epidermal growth factor receptor (Homo sapiens, UniProt P00533, L858R/T790M)
Sequence (P00533 25-1210 T790M/L858R limits assumed): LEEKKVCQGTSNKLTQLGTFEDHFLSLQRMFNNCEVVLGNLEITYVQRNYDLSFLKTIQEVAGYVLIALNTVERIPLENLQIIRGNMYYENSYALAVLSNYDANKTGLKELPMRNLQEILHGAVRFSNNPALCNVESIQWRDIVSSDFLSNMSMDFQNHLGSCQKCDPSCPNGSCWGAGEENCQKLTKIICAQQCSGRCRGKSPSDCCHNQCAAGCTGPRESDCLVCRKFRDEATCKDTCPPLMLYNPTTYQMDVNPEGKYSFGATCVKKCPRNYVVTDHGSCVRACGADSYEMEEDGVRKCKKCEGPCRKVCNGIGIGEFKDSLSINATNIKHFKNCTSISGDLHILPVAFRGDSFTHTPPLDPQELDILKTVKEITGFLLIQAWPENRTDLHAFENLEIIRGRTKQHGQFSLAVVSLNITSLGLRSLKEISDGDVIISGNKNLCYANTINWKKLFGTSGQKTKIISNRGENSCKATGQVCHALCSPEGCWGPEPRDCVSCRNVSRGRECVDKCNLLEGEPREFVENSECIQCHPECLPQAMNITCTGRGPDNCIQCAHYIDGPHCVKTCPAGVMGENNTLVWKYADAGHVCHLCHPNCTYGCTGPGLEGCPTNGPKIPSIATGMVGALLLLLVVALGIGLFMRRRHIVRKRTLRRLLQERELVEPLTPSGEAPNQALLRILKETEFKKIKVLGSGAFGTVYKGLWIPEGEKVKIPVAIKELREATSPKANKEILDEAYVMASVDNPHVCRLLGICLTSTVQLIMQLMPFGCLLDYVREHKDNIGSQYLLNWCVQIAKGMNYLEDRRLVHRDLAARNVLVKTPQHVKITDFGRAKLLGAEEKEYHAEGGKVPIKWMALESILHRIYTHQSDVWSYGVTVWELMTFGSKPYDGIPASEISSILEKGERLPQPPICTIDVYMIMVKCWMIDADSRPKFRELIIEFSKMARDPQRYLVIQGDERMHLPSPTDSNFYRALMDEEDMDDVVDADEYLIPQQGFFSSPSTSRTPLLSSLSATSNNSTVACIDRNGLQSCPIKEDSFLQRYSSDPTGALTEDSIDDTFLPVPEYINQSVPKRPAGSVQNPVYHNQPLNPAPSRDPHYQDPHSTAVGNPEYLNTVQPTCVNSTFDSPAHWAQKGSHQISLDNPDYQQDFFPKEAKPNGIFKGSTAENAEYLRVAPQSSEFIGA
Please provide measured pKi for the entries that follow.
Give bare numbers, as −log10 of the molar value.

These recorded examples may help you get a feel for the data.
> print(dat)
                                   molecule                                       tgt  property.measured  meas.value
1  CC(C)n1c(CO)nc2cnc(Nc3ccnc(N4CC[C@H](O)[C@H](F)C4)n3)cc21 (racemic)  Epidermal growth factor receptor (Homo sapiens, UniProt P00533, L858R/T790M)                pKi        7.80
2  COC1CCN(c2nccc(Nc3cc4c(cn3)nc(CO)n4C(C)C)n2)CC1  Epidermal growth factor receptor (Homo sapiens, UniProt P00533, L858R/T790M)                pKi        7.72
3  CO[C@H]1CCN(c2nccc(Nc3cc4c(cn3)nc(CO)n4C(C)C)n2)C[C@@H]1F (racemic)  Epidermal growth factor receptor (Homo sapiens, UniProt P00533, L858R/T790M)                pKi        7.24
4  Cc1nc2cnc(Nc3ccnc(N4CC[C@H](O)C(F)(F)C4)n3)cc2n1C(C)C (racemic)  Epidermal growth factor receptor (Homo sapiens, UniProt P00533, L858R/T790M)                pKi        8.02

Please find the next molecule below.
Ask | Supply pKi value. Item: "Cc1nc2cnc(Nc3ccnc(NCC(C)(C)C(N)=O)n3)cc2n1C(C)C"
Reply | 7.66

* * *

# Epidermal growth factor receptor (Homo sapiens, UniProt P00533, L858R/T790M): Ki values follow
One number for each entry, in µM.

A selection of reference data follows.
> print(dat)
                                   molecule  property.measured  result.unit  meas.value
1  Cc1nc2cnc(Nc3ccnc(/C=C/C(C)(C)C(N)=O)n3)cc2n1C(C)C                 Ki           µM       0.196
2  COC1(CN(C)C)CCN(c2nccc(Nc3cc4c(cn3)nc(C)n4C(C)C)n2)CC1                 Ki           µM       0.492
3  CC(C)n1cnc2cnc(Nc3ccnc(N4CCC(C(N)=O)CC4)n3)cc21                 Ki           µM       0.151
4  COC1CCN(c2nccc(Nc3cc4c(cn3)ncn4C3CCCCC3)n2)CC1                 Ki           µM       0.018
5  Cc1nc2cnc(Nc3ccnc(SCC(C)(C)C(N)=O)n3)cc2n1C(C)C                 Ki           µM       0.658

Look at each molecule and report its Ki.
1. CCC(C)n1cnc2cnc(Nc3ccnc(N4CCC(OC)CC4)n3)cc21 (racemic; form 3)
2. COC1CCN(c2nccc(Nc3cc4c(cn3)ncn4C3CCOC3)n2)CC1 (racemic)
3. COC1CCN(c2nccc(Nc3cc4c(cn3)ncn4CC(F)(F)F)n2)CC1
4. COC1(CCO)CCN(c2nccc(Nc3cc4c(cn3)nc(C)n4C(C)C)n2)CC1
5. Cc1nc2cnc(Nc3ccnc(N4CCC(O)CC4)n3)cc2n1C(C)C

Reply |
[0.022, 0.149, 0.071, 0.05, 0.034]

* * *

Assay read-out Ki; system under study: Epidermal growth factor receptor (Homo sapiens, UniProt P00533, L858R/T790M).
One number for each entry, in nM.

The cases that follow already have their Ki on record.
> print(dat)
                                   compound  meas.value
1  CCn1cnc2cnc(Nc3ccnc(N4CCC(OC)CC4)n3)cc21         201
2  COC1CCN(c2nccc(Nc3cc4c(cn3)ncn4C3CCC3)n2)CC1          48
3  CO[C@H]1CCN(c2nccc(Nc3cc4c(cn3)nc([C@@H](C)O)n4[C@H](C)C(F)(F)F)n2)C[C@H]1F         1.1

Here is another molecule to look at.
Ask | Answer with the recorded Ki of "COCC1(OC)CCN(c2nccc(Nc3cc4c(cn3)nc(C)n4C(C)C)n2)CC1" only.
Reply | 77

All figures here come from ChEMBL document CHEMBL3734664.
